- Measurement target: LmxCLK1 (Leishmania mexicana)
- Sequence (E9AMP2 1-422): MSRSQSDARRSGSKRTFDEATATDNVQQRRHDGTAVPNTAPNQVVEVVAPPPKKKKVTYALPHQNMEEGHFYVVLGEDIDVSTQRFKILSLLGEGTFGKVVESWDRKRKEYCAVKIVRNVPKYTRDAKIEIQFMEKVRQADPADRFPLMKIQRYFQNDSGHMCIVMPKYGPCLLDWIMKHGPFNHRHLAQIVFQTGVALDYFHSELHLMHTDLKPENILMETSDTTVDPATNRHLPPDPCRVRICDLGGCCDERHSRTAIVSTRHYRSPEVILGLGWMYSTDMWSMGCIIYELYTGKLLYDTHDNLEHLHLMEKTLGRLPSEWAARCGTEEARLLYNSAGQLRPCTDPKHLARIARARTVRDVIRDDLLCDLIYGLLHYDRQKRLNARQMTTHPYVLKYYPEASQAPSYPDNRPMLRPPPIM
- Protocol: biochemical
- Format: binding
- Applied conditions: DSF, 10 µM compound, 2 µM LmxCLK1, mean of two runs
Mark Criterion met only when ΔTm Average stays strictly below -0.1 °C. Values equal to the cut-off are Criterion not met.

Sample answers from the record:
- Clc1ccc(C2(c3ccc(-c4cn[nH]c4)cc3)CCNCC2)cc1: Criterion not met
- Cc1ccc(-n2nc(C(C)(C)C)cc2NC(=O)Nc2ccc(OCCN3CCOCC3)c3ccccc23)cc1: Criterion not met
- COc1cc(Nc2ncc(F)c(Nc3ccc4c(n3)N(COP(=O)(O)O)C(=O)C(C)(C)O4)n2)cc(OC)c1OC [Fostamatinib (R788)]: Criterion not met
- COc1cc2ncnc(Nc3ccc(F)c(Cl)c3)c2cc1NC(=O)/C=C/CN1CCCCC1: Criterion met

For this molecule, is ΔTm Average lower than -0.1 °C? Cl.Cl.O=S(=O)(NCCNC/C=C/c1ccc(Br)cc1)c1cccc2cnccc12 [H 89 2HCl]
Criterion not met

Please let me know if CN1CCN(c2ccc3nc(-c4c(N)c5c(F)cccc5[nH]c4=O)[nH]c3c2)CC1 shows ΔTm Average below -0.1 °C.
Criterion not met

# strict comparison: is reported ΔTm Average < -0.1 °C? input = CO[C@H]1C[C@@H]2CC[C@@H](C)[C@@](O)(O2)C(=O)C(=O)N2CCCC[C@H]2C(=O)O[C@H]([C@H](C)C[C@@H]2CC[C@@H](OP(C)(C)=O)[C@H](OC)C2)CC(=O)[C@H](C)/C=C(\C)[C@@H](O)[C@@H](OC)C(=O)[C@H](C)C[C@H](C)/C=C/C=C/C=C/1C
Criterion not met

Does COc1ncc(-c2ccc3nccc(-c4ccnnc4)c3c2)cc1NS(=O)(=O)c1ccc(F)cc1F have ΔTm Average strictly under -0.1 °C?
Criterion met

Is -0.1 °C strictly greater than the molecule's reported ΔTm Average? molecule: N#Cc1c(NC(=O)c2cccc3ccccc23)sc2c1CCCC2
Criterion not met

Does the reported ΔTm Average of Cn1cc(C2=C(c3cn(C4CCN(Cc5ccccn5)CC4)c4ccccc34)C(=O)NC2=O)c2ccccc21 stay below -0.1 °C?
Criterion not met

====

- Measurement target: NLuc::LmxCLK1 (Leishmania mexicana)
- Protocol: In vitro BRET with purified NLuc::LmxCLK1
- Applied conditions: saturation binding to purified NLuc::LmxCLK1
Test readout: pKd
Here pKd is given on a logarithmic scale as minus log10 of the concentration in mol/L.

Please look at Cc1ccc(C(=O)Nc2ccc(CN3CCN(CCCNC(=O)c4ccc(C(=O)O)c(-c5c6ccc(=O)cc-6oc6cc(O)ccc56)c4)CC3)c(C(F)(F)F)c2)cc1C#Cc1cnc2[nH]ncc2c1 and tell me its recorded pKd on NLuc::LmxCLK1 (Leishmania mexicana).
8.23

====

Below, each entry is listed alongside its reported ΔTm Average.
- Measurement target: UniProt E9AMP2
- Sequence (E9AMP2 1-422): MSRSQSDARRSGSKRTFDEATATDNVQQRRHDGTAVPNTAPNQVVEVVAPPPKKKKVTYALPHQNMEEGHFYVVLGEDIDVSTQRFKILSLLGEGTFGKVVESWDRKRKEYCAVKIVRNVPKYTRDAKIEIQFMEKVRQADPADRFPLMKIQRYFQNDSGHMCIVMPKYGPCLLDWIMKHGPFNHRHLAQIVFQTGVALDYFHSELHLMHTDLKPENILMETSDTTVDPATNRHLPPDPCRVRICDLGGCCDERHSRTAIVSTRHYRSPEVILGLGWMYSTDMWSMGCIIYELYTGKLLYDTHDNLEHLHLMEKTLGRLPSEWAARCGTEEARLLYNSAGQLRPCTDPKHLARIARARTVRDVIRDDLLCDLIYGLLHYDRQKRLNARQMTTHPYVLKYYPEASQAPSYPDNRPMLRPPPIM
- Protocol: biochemical
- Assay type: binding
- Applied conditions: DSF, 10 µM compound, 2 µM LmxCLK1, mean of two runs
Where a name gives a salt, the structure may show the parent alone.
Give the value in °C but do not write °C after it.

* COc1cc2c(Oc3ccc(NC(=O)C4(C(=O)Nc5ccc(F)cc5)CC4)cc3F)ccnc2cc1OCCCN1CCOCC1 | 0.0
* CN1CCN(c2ccc(OC(F)(F)F)c(Nc3ncc4c(n3)-c3c(c(C(N)=O)nn3CCO)CC4)c2)CC1 | 0.0
* CNC(=O)c1cc(Oc2ccc(NC(=O)Nc3ccc(Cl)c(C(F)(F)F)c3)cc2)ccn1 [Sorafenib Tosylate] | 0.3
* CO[C@H]1C[C@@H]2CC[C@@H](C)[C@@](O)(O2)C(=O)C(=O)N2CCCC[C@H]2C(=O)O[C@H]([C@H](C)C[C@@H]2CC[C@H](n3cnnn3)[C@H](OC)C2)CC(=O)[C@H](C)/C=C(\C)[C@@H](O)[C@@H](OC)C(=O)[C@H](C)C[C@H](C)/C=C/C=C/C=C/1C | 0.1
* O=C1NC(=O)C(=Cc2ccc(-c3ccc(F)cc3)o2)S1 | 0.0

Here's the next entry for you.
Tell me ΔTm Average reported for CC(C)(C)c1cnc(CSc2cnc(NC(=O)C3CCNCC3)s2)o1
0.1

====

- Measurement target: LmxCLK1 (Leishmania mexicana, UniProt E9AMP2)
- Protocol: biochemical
- Format: binding
- Applied conditions: DSF, 10 µM compound, 2 µM LmxCLK1, Run 1
Output condition met for ΔTm Run 1 not less than 0 °C; output condition not met otherwise.

Here are 5 compounds together with their reported answers.
- COC(=O)c1ccc2c(c1)NC(=O)/C2=C(\Nc1ccc(N(C)C(=O)CN2CCN(C)CC2)cc1)c1ccccc1: condition met
- COc1ccc(-c2ccc3ncc4c(c3c2)n(-c2ccc(N3CCNCC3)c(C(F)(F)F)c2)c(=O)n4C)cn1: condition met
- CC[C@@H]1C(=O)N(C)c2cnc(Nc3ccc(C(=O)N[C@H]4CC[C@H](N5CCN(CC6CC6)CC5)CC4)cc3OC)nc2N1C(C)C: condition met
- C=CC(=O)Nc1cccc(Nc2nc(Nc3ccc(Oc4ccnc(C(=O)NC)c4)cc3)ncc2F)c1: condition not met
- CC1(COc2ccc3c(c2)ncn3-c2ccc3cccc(N4CCC(N)CC4)c3n2)COC1: condition met

Is it the case that Cc1ccccc1-n1c(Cn2ncc3c(N)ncnc32)nc2cccc(C)c2c1=O has ΔTm Run 1 reaching or exceeding 0 °C?
condition met

// inclusive: ΔTm Run 1 at least 0 °C? input: O=C(NC(NC(=S)Nc1ccc(F)c([N+](=O)[O-])c1)C(Cl)(Cl)Cl)C(c1ccccc1)c1ccccc1 (stereo not shown)
condition not met

Entry Oc1ccc(Nc2nc(-c3ccc(Cl)cc3)cs2)cc1 : is its ΔTm Run 1 no less than 0 °C?
condition met

Item O=C(NC[C@H](O)CO)c1ccncc1Nc1ccc(I)cc1F with ΔTm Run 1 of 0 °C or above?
condition met

Test whether the compound COc1cc2nccc(Oc3ccc(NC(=O)NC4CC4)c(Cl)c3)c2cc1C(N)=O [Lenvatinib (E7080)] records ΔTm Run 1 of 0 °C or higher.
condition not met

====

- Measurement target: LmxCLK1 (Leishmania mexicana, UniProt E9AMP2)
- Sequence (E9AMP2 1-422): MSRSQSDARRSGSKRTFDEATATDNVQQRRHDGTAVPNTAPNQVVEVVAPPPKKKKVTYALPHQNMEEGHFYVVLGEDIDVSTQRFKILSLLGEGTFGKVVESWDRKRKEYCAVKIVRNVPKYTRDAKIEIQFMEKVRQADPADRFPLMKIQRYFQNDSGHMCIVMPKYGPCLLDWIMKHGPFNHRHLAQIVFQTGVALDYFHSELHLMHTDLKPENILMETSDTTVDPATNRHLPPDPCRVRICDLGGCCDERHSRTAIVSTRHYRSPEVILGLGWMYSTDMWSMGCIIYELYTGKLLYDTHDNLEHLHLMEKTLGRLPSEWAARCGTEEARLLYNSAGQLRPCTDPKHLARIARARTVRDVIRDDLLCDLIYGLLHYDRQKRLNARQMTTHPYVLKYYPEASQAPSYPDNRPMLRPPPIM
- Protocol: biochemical
- Assay type: binding
- Applied conditions: DSF, 10 µM compound, 2 µM LmxCLK1, Run 2
# ΔTm Run 2 per record follows
Number only, in °C; omit the unit.

* NCC(=O)Nc1ccc(-n2nc(C(F)(F)F)cc2-c2ccc3c(ccc4ccccc43)c2)cc1 | 0.2
* O=C(NOCC(O)CO)c1cc(Br)c(F)c(F)c1Nc1ccc(I)cc1F (stereo not drawn) | 0.1
* CC(C)(C)c1cnc(CSc2cnc(NC(=O)C3CCNCC3)s2)o1 | 0.0
* CN1CCN(c2ccc3nc(-c4c(N)c5c(F)cccc5[nH]c4=O)[nH]c3c2)CC1 | 0.2
* C=CC(=O)N1CCC[C@@H](n2nc(-c3ccc(Oc4ccccc4)cc3)c3c(N)ncnc32)C1 | -0.2
* CNC(=O)c1cc(Oc2ccc(NC(=O)Nc3ccc(Cl)c(C(F)(F)F)c3)cc2)ccn1 | 0.2
* O=C(c1cccc(Cl)c1F)N1CCN(Cc2cccc(Nc3nccs3)n2)CC1 | 1.0
* O=C1Nc2ccc(I)cc2/C1=C/c1cc(Br)c(O)c(Br)c1 | -0.4
* CNC(=O)c1cc(Oc2ccc(NC(=O)Nc3cc(C(C)(C)C)nn3-c3ccc4ncccc4c3)c(F)c2)ccn1 [DCC-2036 (Rebastinib)] | -0.4
* S=C(NCc1ccc2c(c1)OCO2)N1CCN(c2ncnc3c2oc2ccccc23)CC1 | 0.0

Item CNC(=O)Nc1ccc(-c2nc(N3CC4CCC(C3)O4)c3cnn(C4CCC5(CC4)OCCO5)c3n2)cc1 : provide ΔTm Run 2
-0.1

Identify measured ΔTm Run 2 corresponding to CC(=O)c1c(C)c2cnc(Nc3ccc(N4CCNCC4)cn3)nc2n(C2CCCC2)c1=O.Cl [Palbociclib (PD-0332991) HCl]
0.4

Check the records and state ΔTm Run 2 for CN1CCN(c2ccc(OC(F)(F)F)c(Nc3ncc4c(n3)-c3c(c(C(N)=O)nn3CCO)CC4)c2)CC1
0.0

Determine from records and report ΔTm Run 2 for CN1CCN(CCOc2cc(OC3CCOCC3)c3c(Nc4c(Cl)ccc5c4OCO5)ncnc3c2)CC1
0.7

Return value of ΔTm Run 2 for input Cl.Cl.Clc1ccc(Nc2nnc(Cc3ccncc3)c3ccccc23)cc1 [Vatalanib (PTK787) 2HCl] , no commentary.
0.0

State, in one line, measured ΔTm Run 2 of COc1cc(N2CCC(N)CC2)ccc1Nc1ncc(Cl)c(-c2c[nH]c3ccccc23)n1
0.3

Determine its reported ΔTm Run 2: CCN1CCN(C(=O)Cc2ccc(Nc3ncc(F)c(Nc4ccc(C(=O)Nc5ccccc5Cl)cc4)n3)cc2)CC1
-0.1

Read off the recorded ΔTm Run 2 for CN(C)c1ccc(-c2nc3ncc(Cl)c(N4CCN(CC(=O)Nc5nccs5)CC4)c3[nH]2)cc1
0.0

Quick one: give measured ΔTm Run 2 for Cc1ccc(F)c(NC(=O)Nc2ccc(-c3cccc4[nH]nc(N)c34)cc2)c1
0.6

Supply recorded ΔTm Run 2 for CCC[C@H](NC(=O)/C(C#N)=C/c1cccc(Br)n1)c1ccccc1 [Degrasyn (WP1130)] here.
0.2

Assign ΔTm Run 2 to the following record: NC(=O)Nc1sc(-c2ccc(F)cc2)cc1C(N)=O
0.2
